# Tested on: DENV-1
# TEST: microbe, parasite or virus in culture
# Type: cell-based, DENV-1 clone D19044_7M
# TEST CONTEXT: Dengue virus, DENV1, A549, 48 h, read-out: EC50 against DENV-1
pEC50: −log10 of the molar value.
MEASUREMENT NAME: pEC50

{"MOLECULE": "COc1cc2c(OCC#N)c3c(c(-c4ccc5c(c4)OCO5)c2cc1OC)C(=O)OC3 [Compound C156-P1]", "RECORDED RESULT": 8.08}

---

# Tested on: DENV-4
# TEST: DENV-4 infection, immunofluorescence assay
# Type: cell-based
# TEST CONTEXT: Dengue virus, DENV4, A549, 48 h, read-out: EC50 against DENV-4
MEASUREMENT NAME: EC50 (nM)

{"MOLECULE": "COc1cc2c(OCC#N)c3c(c(-c4ccc5c(c4)OCO5)c2cc1OC)C(=O)OC3 [Compound C156-P1]", "MEASUREMENT NAME": "EC50", "RECORDED RESULT": 5.31}
